// % 25 nM CA200645 binding lookup, one value per entry
Target: human A3AR (Homo sapiens, UniProt P0DMS8)
Construct: expressed in transfected cells
Sequence (P0DMS8 whole entry): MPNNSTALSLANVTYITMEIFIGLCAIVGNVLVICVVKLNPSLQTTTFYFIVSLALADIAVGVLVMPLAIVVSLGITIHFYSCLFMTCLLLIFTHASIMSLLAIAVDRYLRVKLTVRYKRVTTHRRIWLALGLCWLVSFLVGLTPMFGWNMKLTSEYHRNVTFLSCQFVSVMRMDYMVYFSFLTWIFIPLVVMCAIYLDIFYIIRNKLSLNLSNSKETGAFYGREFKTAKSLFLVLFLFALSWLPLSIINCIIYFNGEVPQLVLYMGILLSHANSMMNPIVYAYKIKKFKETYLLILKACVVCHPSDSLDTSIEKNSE
Experiment: LOPAC library primary screen: single concentration (10 μM) inhibition of 25 nM CA200645 binding, PHERAstar FS
Reply with just the number (in %).

Q) Record OCCN1CCN(CCCN2c3ccccc3Sc3ccc(Cl)cc32)CC1 : what is its % 25 nM CA200645 binding with human A3AR (Homo sapiens, UniProt P0DMS8)?
A) 88.8

Q) Record NS(=O)(=O)c1cc(C(=O)O)c(NCc2ccco2)cc1Cl [Furosemide] : what is its % 25 nM CA200645 binding with human A3AR (Homo sapiens, UniProt P0DMS8)?
A) 95.7

Q) Record O=C(O)/C=C\C(=O)O.O=C1/C(=C/c2ccccc2)C[C@@]2(O)[C@H]3Cc4ccc(O)c5c4[C@@]2(CCN3CC2CC2)[C@H]1O5 [BNTX maleate salt hydrate] : what is its % 25 nM CA200645 binding with human A3AR (Homo sapiens, UniProt P0DMS8)?
A) 109.9

Q) Record O=c1ccc2c(OCCCCc3ccccc3)c3ccoc3cc2o1 : what is its % 25 nM CA200645 binding with human A3AR (Homo sapiens, UniProt P0DMS8)?
A) 66.4

---

// % 25 nM CA200645 binding lookup, one value per entry
Molecular target: human A3AR (Homo sapiens, UniProt P0DMS8)
Construct: expressed in transfected cells
Assay: LOPAC library primary screen: single concentration (10 μM) inhibition of 25 nM CA200645 binding, PHERAstar FS
Structures can show the parent of a compound that is named as a salt.
Reply with just the number (in %).

These solved cases illustrate the format of a correct answer.
- compound: "CCOC(=O)C1=C[C@]2(CC)CCCN3CCc4c(n1c1ccccc41)[C@@H]32"
  % 25 nM CA200645 binding / %: 97.3
- compound: "CCN(CC)c1ncnc2c1ncn2[C@@H]1O[C@H](COP(=O)([O-])OP(=O)([O-])C(Br)(Br)P(=O)([O-])O)[C@@H](O)[C@H]1O.[Na+].[Na+].[Na+] [ARL 67156 trisodium salt]"
  % 25 nM CA200645 binding / %: 103.2

Q) Record N=C(N)SCCc1cnc[nH]1 [Imetit dihydrobromide] : what is its % 25 nM CA200645 binding with human A3AR (Homo sapiens, UniProt P0DMS8)?
A) 99.9

Q) Record Cc1nc2n(c(=O)c1CCN1CCC(c3noc4cc(F)ccc34)CC1)CCCC2O (centres unmarked) : what is its % 25 nM CA200645 binding with human A3AR (Homo sapiens, UniProt P0DMS8)?
A) 94.9

Q) Record Cl.N[C@@H](Cc1cnc[nH]1)C(=O)O [L-Histidine hydrochloride] : what is its % 25 nM CA200645 binding with human A3AR (Homo sapiens, UniProt P0DMS8)?
A) 100.4

---

Biological target: human A3AR (Homo sapiens, UniProt P0DMS8)
Construct: expressed in transfected cells
Assay: LOPAC library primary screen: single concentration (10 μM) inhibition of 25 nM CA200645 binding, PHERAstar FS
Structures can show the parent of a compound that is named as a salt. Where a SMILES comes first, the peptide text is derived from it. The star is where a group is joined. Cbz = O=C(OCc1ccccc1)*
// % 25 nM CA200645 binding lookup, one value per entry
Reply with just the number (in %).

These solved cases illustrate the format of a correct answer.
- molecule: "CN1[C@@H]2CC[C@H]1C[C@@H](OC(c1ccccc1)c1ccccc1)C2 [Benztropine mesylate]"
  units symbol: "%"
  % 25 nM CA200645 binding: 96.0
- molecule: "C[N+](C)(C)CCCCCCCCCC[N+](C)(C)C.[Br-].[Br-] [Decamethonium dibromide]"
  units symbol: "%"
  % 25 nM CA200645 binding: 106.4
- molecule: "CC[C@]1(O)C[C@H]2CN(CCc3c([nH]c4ccccc34)[C@@](C(=O)OC)(c3cc4c(cc3OC)N(C=O)[C@H]3[C@@](O)(C(=O)OC)[C@H](OC(C)=O)[C@]5(CC)C=CCN6CC[C@]43[C@@H]65)C2)C1 [Vincristine sulfate]"
  units symbol: "%"
  % 25 nM CA200645 binding: 106.1
- molecule: "COCCOC(=O)C1=C(C)NC(C)=C(C(=O)OC/C=C/c2ccccc2)C1c1cccc([N+](=O)[O-])c1 (stereo not drawn) [Cilnidipine]"
  units symbol: "%"
  % 25 nM CA200645 binding: 67.0
- molecule: "Cn1c(=O)c2[nH]cnc2n(C)c1=O.Cn1c(=O)c2[nH]cnc2n(C)c1=O.NCCN [Aminophylline ethylenediamine]"
  units symbol: "%"
  % 25 nM CA200645 binding: 89.2
- molecule: "CC(C)COCC(CN(Cc1ccccc1)c1ccccc1)N1CCCC1 (stereo not drawn) [Bepridil hydrochloride]"
  units symbol: "%"
  % 25 nM CA200645 binding: 101.8
- molecule: "Cl.Nc1ccn([C@@H]2O[C@H](CO)[C@@H](O)[C@@H]2O)c(=O)n1"
  units symbol: "%"
  % 25 nM CA200645 binding: 98.1
- molecule: "CC(C)C[C@H](NC(=O)[C@H](O)[C@H](N)Cc1ccccc1)C(=O)O [Epibestatin hydrochloride]"
  units symbol: "%"
  % 25 nM CA200645 binding: 102.9

Q) What does the data say about its % 25 nM CA200645 binding? Entry: CCCN1CCC[C@@H]2Cc3nc(N)ncc3C[C@H]21.Cl.Cl [Quinelorane dihydrochloride]
A) 105.7

Q) What does the data say about its % 25 nM CA200645 binding? Entry: CCN(c1nc(N)c(C(=O)NC(=N)N)nc1Cl)C(C)C [5-(N-Ethyl-N-isopropyl)amiloride]
A) 94.1

Q) What does the data say about its % 25 nM CA200645 binding? Entry: Cc1cccc(C)c1NC(=O)CN1CCCC1=O [Nefiracetam]
A) 88.8

Q) What does the data say about its % 25 nM CA200645 binding? Entry: CNc1ncnc2c1ncn2[C@@H]1O[C@H](CO)[C@@H](O)[C@H]1O [N6-Methyladenosine]
A) 61.1

Q) What does the data say about its % 25 nM CA200645 binding? Entry: N[C@@H](Cn1ccc(=O)c(O)c1)C(=O)O [L-Mimosine from Koa hoale seeds]
A) 106.5

Q) What does the data say about its % 25 nM CA200645 binding? Entry: CC1(C(=O)O)C2CCC(O2)C1(C)C(=O)O (stereo not drawn) [Cantharidic Acid]
A) 97.5

Q) What does the data say about its % 25 nM CA200645 binding? Entry: CCCc1nn(C)c2c(=O)[nH]c(-c3cc(S(=O)(=O)N4CCN(C)CC4)ccc3OCC)nc12.O=C(O)CC(O)(CC(=O)O)C(=O)O [Sildenafil citrate salt]
A) 88.1

Q) What does the data say about its % 25 nM CA200645 binding? Entry: CC(C)[C@H](NC(=O)OCc1ccccc1)C(=O)N[C@H](C=O)Cc1ccccc1 [MDL 28170] (Cbz-Val-Phe-aldehyde)
A) 96.0

Each recorded value in this set is attributed to paper PMC5733478.
